# Assay Overview: Clearance in Sprague-Dawley rat at 5 mg/kg, iv by LC-MS/MS analysis
# Format: ADME, organism-based
# Condition Context: in vivo
Property Name: clearance

[[record]]
smiles_record = "O=c1ccc(OCCCN2CCCCC2)nn1-c1ccc(Cl)c(Cl)c1"
property_name = "clearance"
result = "49.3 mL/min/kg"


* * *

# Assay Overview: AUC (0 to infinity) in Sprague-Dawley rat at 5 mg/kg, iv by LC-MS/MS analysis
# Assay type: ADME, organism-based
# Set-up: dose 5 mg/kg, time infinity, route intravenous
# Condition Context: in vivo
Property Name: AUC(0-inf) (ng·h/mL)

[[record]]
smiles_record = "O=c1ccc(OCCCN2CCCCC2)nn1-c1ccc(Cl)c(Cl)c1"
result = 956


Every entry's value here was drawn from ChEMBL document CHEMBL3804799.
